assay: Encapsulation efficiency of lipid nanoparticles, Quant-it Ribogreen RNA assay; format: physicochemical; conditions: LNP of lipid/DSPC/cholesterol/PEG-lipid 50:10:38.5:1.5 encapsulating hEPO mRNA
Label Yes when Encapsulation Efficiency < 90%; otherwise No.

Consider the compound CCCCCCCCC(CCCCCCCC)COC(=O)CCCCCN(CCO)CCN(CCCCCC(=O)OCC(CCCCCCCC)CCCCCCCC)C1CCC(C)CC1 (centres unmarked) . Is its Encapsulation Efficiency strictly less than 90%?
Yes

Determine whether this compound shows Encapsulation Efficiency lower than 90% (ties excluded): CCCCCCCCC(CCCCCCCC)COC(=O)CCCCCN(CCO)CCN(CCCCCOC(=O)CCCCC=C(CCCCCC)CCCCCC)C1CCC1
No

State whether 90% exceeds Encapsulation Efficiency recorded for CCCCCCCCC(CCCCCCCC)COC(=O)CCCCCN(CCC)CCN(CCCCCC(=O)OCC(CCCCCCCC)CCCCCCCC)C1CCC(O)CC1 (centres unmarked) .
No

Problem: For the compound CCCCCCCCCCCNC(=O)CCCCCN(CCN(CCO)CCCCC(COC(=O)CCCCCCC)COC(=O)CCCCCCC)C1CCC1 , is Encapsulation Efficiency under 90%?
Yes

Check if Encapsulation Efficiency falls below 90% for CCCCCCCCC(CCCCCCCC)COC(=O)CCCCCN(CCO)CCN(CCCCCC(=O)OCC(CCCCCCCC)CCCCCCCC)C1CCC1 .
Yes

Dear colleague, could you confirm whether Encapsulation Efficiency of CCCCCCCCC(CCCCCCCC)COC(=O)CCCCCN(CCO)CCN(CCCCC)CCCCCC(=O)OCC(CCCCCCCC)CCCCCCCC falls below 90%? Thanks.
No

----------
test: Lipid nanoparticle size and polydispersity by dynamic light scattering; type: physicochemical; settings: LNP of lipid/DSPC/cholesterol/PEG-lipid 50:10:38.5:1.5 encapsulating hEPO mRNA
observation_type: polydispersity
No unit in the answer, please; the number alone is enough.

Requested read-out: polydispersity. Entry: CCCCCCCCC(CCCCCC)CNC(=O)CCCCCN(CCOCCO)CCN(CCCCC(COC(=O)CCCCCCC)COC(=O)CCCCCCC)C1CCCCC1 (stereo not shown)
0.07

Quick one: polydispersity of CCCCCCCCC(CCCCCCCC)COC(=O)CCCCCN(CCN(CCCCCC(=O)OCC(CCCCCCCC)CCCCCCCC)C1CCC(O)CC1)C1CCC1 (stereo not shown) ?
0.071

For the molecule shown here, CCCCCCCCC(CCCCCCCC)COC(=O)CCCCCN(CCN(CCO)CCOCCC(=O)OCC(CCCCCCCC)CCCCCCCC)C1CCCCC1 , give the reported polydispersity.
0.069

Given the entry CCCCCCCCC(CCCCCCCC)COC(=O)CCCCCN(CCO)CCN(CCCCCC(=O)OCC(CCCCCCCC)CCCCCCCC)C1CCC(F)(F)CC1 , report its measured polydispersity.
0.068

----------
assay: Lipid nanoparticle size and polydispersity by dynamic light scattering; assay type: physicochemical; conditions: LNP of lipid/DSPC/cholesterol/PEG-lipid 50:10:38.5:1.5 encapsulating hEPO mRNA
Decision: polydispersity beneath 0.06 gives y; polydispersity meeting or exceeding 0.06 gives n.

Regarding CCCCCCCCC(CCCCCCCC)CNC(=O)CCCCCN1CCC(N(CCO)CCCCCC(=O)OCC(CCCCCCCC)CCCCCCCC)CC1 [Compound 171] , kindly confirm whether its polydispersity is beneath 0.06.
n

# check: polydispersity < 0.06 for CCCCCCCCCCCOC(=O)CCCCCN(CCN(CCCCCC(=O)OCC(CCCCCCCC)CCCCCCCC)CCNc1c(NC)c(=O)c1=O)C1CCC1 [Compound 82]
n

Answer whether the compound CCCCCCCCC(CCCCCCCC)COC(=O)CCCCCN(CCO)CCCCN(CCCCCC(=O)OCC(CCCCCCCC)CCCCCCCC)C1CCC1 [Compound 86] has polydispersity strictly less than 0.06
y

Field: below-cutoff. Rule: recorded polydispersity strictly less than 0.06. Subject: CCCCCCCCC(CCCCCCCC)CC(=O)NCCCCCN(CCN(CCO)CCCCCOC(=O)CC(CCCCCCCC)CCCCCCCC)C1CCCC1 [Compound 72]
y

hey, is polydispersity for CCCCCCCCCCCOC(=O)CCCCCN(CCN(CCO)CCCCCNP(=O)(OCCCCCCCCC)OCCCCCCCCC)C1CCCCC1 [Compound 100] lower than 0.06 or not?
n

Problem: For the compound CCCCCCCCC(CCCCCC)CNC(=O)CCCCCN(CCO)CCN(CCCCC(COC(=O)CCCCCCC)COC(=O)CCCCCCC)C1CCCCCCC1 (stereo not drawn) [Compound 145] , is polydispersity under 0.06?
y

Could you please tell me whether polydispersity recorded for CCCCCCCCC(CCCCCCCC)COC(=O)CCCCCN(CCO)CCN(CCCCCC(=O)OCC(CCCCCCCC)CCCCCCCC)C1CCSCC1 [Compound 30] is less than 0.06?
n

Is the reported polydispersity for CCCCCCCCC(CCCCCCCC)COC(=O)CCCCCN(CCO)CCN(CCCCCCOC(=O)C(CCCCCCCC)CCCCCCCC)C1CCC1 [Compound 84] strictly below 0.06?
n

Is the reported polydispersity for CCCCCCCCCCCC(=O)OCCCCCN(CCN(CCO)CCCCCOC(=O)CC(CCCCCCCC)CCCCCCCC)C1CCCC1 [Compound 93] strictly below 0.06?
n
